Test system: 3D7
Assay: Cross-resistance EC50 assay, 3D7 parent / sensitive strain
Type: cell-based
Conditions: Plasmodium falciparum; hypoxanthine 48-hour assay; synchronized parasites; 96-well format; strain 3D7 (parent); read-out: 3D7 (PARENT) Average EC50
MEASURED METRIC: pEC50
# pEC50 = -log10(concentration in molar units)

Please look up its pEC50: CN1CCN(c2ccc(Nc3c4ccccc4nc4ccccc34)cc2)CC1 [MMV006172] 7.05

Please look up its pEC50: CC(C)(C)OC(=O)N1CCN(c2ccccc2NC(=O)c2cccc(C(F)(F)F)c2Oc2ccc(F)cc2)CC1 [MMV030666] 6.31

Please look up its pEC50: FC(F)(F)c1cccc(Nc2nc3ccccc3nc2Nc2cccc(C(F)(F)F)c2)c1 [MMV665794] 6.99

Please look up its pEC50: Nc1ccc(-c2nc3cc(Cc4ccc5[nH]c(-c6ccc(N)cc6)nc5c4)ccc3[nH]2)cc1 [MMV665943] 6.50

====

System: CYTb-G131S (cytb G131S, parent Dd2)
Assay: Cross-resistance EC50 assay, CYTb-G131S
Type: cell-based, Plasmodium falciparum
Details: Plasmodium falciparum, DD2; SYBR green 72 hour assay; synchronized parasites; 384-well format; CYTb:G131S strain
Please go through the items and note down their EC50.
In your response, put the unit directly after the numeric value.

Can you look up EC50 on CYTb-G131S (cytb G131S, parent Dd2) for COc1ccc(NC(=O)N2CCCCN3[C@H](CN)[C@H](c4ccc(C#Cc5ccccc5)cc4)[C@@H]3C2)cc1 ? 0.024 µM

Can you look up EC50 on CYTb-G131S (cytb G131S, parent Dd2) for CN(C)CCCNCc1ccc(-c2ccc(Cl)c(Cl)c2)o1 ? 0.363 µM

Can you look up EC50 on CYTb-G131S (cytb G131S, parent Dd2) for COc1ccc2c3c([nH]c2c1)[C@H](CO)N(C(C)=O)CC31CCN(C(=O)Nc2ccccc2F)CC1 ? 0.182 µM

====

System: ATQ-R4 (cytb M133I and L144S, parent 3D7)
Assay: Cross-resistance EC50 assay, ATQ-R4
Assay type: cell-based, Plasmodium falciparum
Conditions: Plasmodium falciparum, 3D7; SYBR green 72 hour assay; asynchronized parasites; 96-well or 1536-well format; ATQ-R4
From the text: To evaluate potential overlapping activity against known antimalarial drug targets, we performed dose-response studies with each compound against our assembled set of drug-resistant lines and their corresponding parents, in an asexual blood stage proliferation assay (Table 1). Comparisons were made to the drug-sensitive strain 3D7 when a parent was unavailable (TM90C2A, W2 and Dd2). […]
MEASURED METRIC: log10(EC50) (log10 of the value in µM)
Values are log10 of EC50 in µM.

Please look up its log10(EC50): COc1cc(C(=O)ON=C(N)Cc2cccc3ccccc23)cc(OC)c1OC -0.11

Please look up its log10(EC50): Cc1cc(Nc2ccc(OCc3ccccc3)cc2)nc2cc(O)ccc12 -0.96

Please look up its log10(EC50): O=C(Nc1ccc(Cl)c(Cl)c1)Nc1ccc(Cl)c(Cl)c1 0.46

Please look up its log10(EC50): Cl.c1ccc2c(NCCCCCCNc3c4c(nc5ccccc35)CCCC4)c3c(nc2c1)CCCC3 -1.10

Please look up its log10(EC50): FC(F)(F)c1cccc(Nc2nc3ccccc3nc2Nc2cccc(C(F)(F)F)c2)c1 -0.36

Please look up its log10(EC50): COc1cc2cc(C(=O)Nc3ccccc3)c(N)nc2cc1OC 0.44

Please look up its log10(EC50): COc1ccccc1CNC(=O)CCn1c(=O)[nH]c2ccsc2c1=O -1.24

Please look up its log10(EC50): CN(C)Cc1ccc(-c2cc3c(-c4ccc(CN(C)C)cc4)ccnc3[nH]2)cc1.O=C(O)C(F)(F)F -0.43

Please look up its log10(EC50): Cc1nc2ccc3ccc(CNc4ccc(C(=O)CC(CCC(=O)O)C(=O)O)cc4)cc3c2c(=O)[nH]1.Cl (stereo not drawn) -0.71

Please look up its log10(EC50): Brc1ccc(Nc2nc3ccccc3nc2Nc2ccc(Br)cc2)cc1 -0.12

Please look up its log10(EC50): Nc1ncc(-c2cn[nH]c2)cc1-c1nc2ccc(F)cc2[nH]1 0.22

Please look up its log10(EC50): OC(CNC1CCCCC1)Cn1c2ccccc2c2ccccc21 (stereo not drawn) -0.18

Please look up its log10(EC50): OC(CNC1CCCCC1)Cn1c2ccc(I)cc2c2cc(I)ccc21 (stereo not drawn) -1.59

Please look up its log10(EC50): COc1ccc(NC(=O)N2CCCCN3[C@H](CN)[C@H](c4ccc(C#Cc5ccccc5)cc4)[C@@H]3C2)cc1 -2.52

Please look up its log10(EC50): COc1ccc2c3c([nH]c2c1)[C@H](CO)N(C(C)=O)CC31CCN(C(=O)Nc2ccccc2F)CC1 -1.57

Please look up its log10(EC50): Nc1ccc(-c2nc3cc(Cc4ccc5[nH]c(-c6ccc(N)cc6)nc5c4)ccc3[nH]2)cc1 -1.35

Please look up its log10(EC50): CCCCCCCN(Cc1ccc(OC(C)(C)C(=O)OCC)cc1)C(=O)Nc1ccc(Cl)cc1OCC -1.25

Please look up its log10(EC50): COc1cc(-c2nc(-c3ccccc3)c(-c3ccccc3)[nH]2)cc(OC)c1O -0.04

====

Test system: HepG2
Assay: Hepatocyte toxicity
Assay type: cell-based, human
Conditions: toxicity fold shift for the liver stage (hepatocyte toxicity vs liver stage EC50)
MEASURED METRIC: Liver Stage / Hepatocyte Toxicity
Write the value as a bare number.

Please look up its Liver Stage / Hepatocyte Toxicity: FC(F)(F)c1cccc(Nc2nc3ccccc3nc2Nc2cccc(C(F)(F)F)c2)c1 3.67

Please look up its Liver Stage / Hepatocyte Toxicity: CN(C)Cc1ccc(-c2cc3c(-c4ccc(CN(C)C)cc4)ccnc3[nH]2)cc1.O=C(O)C(F)(F)F 2.90

Please look up its Liver Stage / Hepatocyte Toxicity: CN(C)CCCNCc1ccc(-c2ccc(Cl)c(Cl)c2)o1 2.21

Please look up its Liver Stage / Hepatocyte Toxicity: CC(C)(C)OC(=O)N1CCN(c2ccccc2NC(=O)c2cccc(C(F)(F)F)c2Oc2ccc(F)cc2)CC1 16.60

Please look up its Liver Stage / Hepatocyte Toxicity: Cc1cc(Nc2ccc(OCc3ccccc3)cc2)nc2cc(O)ccc12 1.66

Please look up its Liver Stage / Hepatocyte Toxicity: COc1cc(-c2nc(-c3ccccc3)c(-c3ccccc3)[nH]2)ccc1OCCN(C)C 4.25

Please look up its Liver Stage / Hepatocyte Toxicity: O=C(Nc1ccccc1O)c1ccc(Oc2cccc(C(=O)Nc3ccccc3O)c2)cc1 6.73

Please look up its Liver Stage / Hepatocyte Toxicity: CN(C)S(=O)(=O)c1cc(-c2ccc3nccc(-c4cccc(S(N)(=O)=O)c4)c3c2)cnc1N 13.52

====

Test system: GNF449-R2 (PfATP4 I203L and P990R, parent Dd2)
Test: Cross-resistance EC50 assay, GNF449-R2
Type: cell-based
Details: Plasmodium falciparum, SYBR green 72 hour assay, asynchronized parasites, 96-well or 1536-well format
Grouping by measured EC50 is done with the following cut points: low end = under 0.2 µM, middle = from 0.2 µM up to 0.7 µM, high end = 0.7 µM and over

Which band does Nc1ccc(-c2nc3cc(Cc4ccc5[nH]c(-c6ccc(N)cc6)nc5c4)ccc3[nH]2)cc1 fall in? middle

Which band does CCOc1cc2c(cc1OCC)C(c1cc(Cl)ccc1O)NCC2 (stereo not drawn) fall in? middle

Which band does Cc1cc(Nc2ccc(OCc3ccccc3)cc2)nc2cc(O)ccc12 fall in? low end

Which band does O=C(Nc1ccsc1C(=O)NC1CCCCC1)c1ccc(F)cc1 fall in? high end

Which band does O=C(Nc1ccccc1O)c1ccc(Oc2cccc(C(=O)Nc3ccccc3O)c2)cc1 fall in? high end

Which band does COc1ccc(NC(=O)N2CCCCN3[C@H](CN)[C@H](c4ccc(C#Cc5ccccc5)cc4)[C@@H]3C2)cc1 fall in? low end

Which band does CCCN(CCC)CC(O)COc1ccccc1C(=O)Nc1ccccc1 (stereo not drawn) fall in? middle

Which band does Cl.c1ccc2c(NCCCCCCNc3c4c(nc5ccccc35)CCCC4)c3c(nc2c1)CCCC3 fall in? middle

Which band does O=C(NC(c1ccccc1)c1ccc2cccnc2c1O)c1ccccc1 (stereo not drawn) fall in? high end

Which band does CC(C)(C)OC(=O)N1CCN(c2ccccc2NC(=O)c2cccc(C(F)(F)F)c2Oc2ccc(F)cc2)CC1 fall in? middle

Which band does COc1cc(-c2nc(-c3ccccc3)c(-c3ccccc3)[nH]2)cc(OC)c1O fall in? high end

Which band does CCN(CC)S(=O)(=O)c1ccc(-c2csc(Nc3ccc(C)c(C)c3)n2)cc1 fall in? high end

Which band does CCN(CC)CCn1c(=N)n(CC(O)c2ccc(Cl)c(Cl)c2)c2ccccc21.Cl (stereo not drawn) fall in? middle

Which band does OC(CNC1CCCCC1)Cn1c2ccc(I)cc2c2cc(I)ccc21 (stereo not drawn) fall in? low end

Which band does COc1cc2cc(C(=O)Nc3ccccc3)c(N)nc2cc1OC fall in? middle
